TARGET_OR_SYSTEM: hM5 (Homo sapiens)
Construct: expressed in transfected cells
Sequence (P08912 1-532): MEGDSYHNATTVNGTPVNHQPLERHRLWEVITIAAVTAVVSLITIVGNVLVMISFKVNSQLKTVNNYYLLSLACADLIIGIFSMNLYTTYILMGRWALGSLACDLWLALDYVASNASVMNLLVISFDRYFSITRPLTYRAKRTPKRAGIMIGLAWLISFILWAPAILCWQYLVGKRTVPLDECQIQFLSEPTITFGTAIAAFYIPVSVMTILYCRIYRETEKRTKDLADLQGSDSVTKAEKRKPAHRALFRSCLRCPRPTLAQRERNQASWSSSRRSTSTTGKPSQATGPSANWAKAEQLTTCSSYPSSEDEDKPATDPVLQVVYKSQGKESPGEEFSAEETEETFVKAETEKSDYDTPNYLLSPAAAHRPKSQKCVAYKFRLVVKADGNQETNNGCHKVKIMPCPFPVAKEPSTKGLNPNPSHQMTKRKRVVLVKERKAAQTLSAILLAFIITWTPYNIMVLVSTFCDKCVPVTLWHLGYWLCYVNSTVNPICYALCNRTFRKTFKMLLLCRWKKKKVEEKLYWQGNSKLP
ASSAY_COMMENT: Calcium mobilization concentration-response (IC50 vs EC80 acetylcholine), CHO hM5
Format: cell-based
RECORDED_CONDITIONS: CELL LINE hM5; vs EC80 acetylcholine; read-out: IC50
READOUT: IC50 (nM)

Before answering, review these 2 worked examples.
[[record]]
compound = "Cc1c(C2CCN(S(=O)(=O)c3cnc4sccn34)CC2)cn2ncnc2c1F"
readout = "IC50"
reported_result = 9

[[record]]
compound = "CO[C@@H]1CN(S(=O)(=O)c2cnn(C)c2Cl)CC[C@H]1c1cn2ncnc2cc1C (single isomer, unassigned) [Compound 459]"
readout = "IC50"
reported_result = 268


I = Cc1cc2ncnn2cc1C1CCN(S(=O)(=O)c2cnn(C)c2OC(C)C)CC1
II = Cc1cc2ncccc2cc1C1CCN(S(=O)(=O)c2cnn(C)c2CC#N)CC1
Request: When their IC50 values are compared, which is larger, I or II ? // return label of chosen record
Result: II
(II: 1280 nM, I: 244 nM)

----------
TARGET_OR_SYSTEM: hM5 (Homo sapiens, UniProt P08912)
Construct: expressed in transfected cells
Sequence (P08912 1-532): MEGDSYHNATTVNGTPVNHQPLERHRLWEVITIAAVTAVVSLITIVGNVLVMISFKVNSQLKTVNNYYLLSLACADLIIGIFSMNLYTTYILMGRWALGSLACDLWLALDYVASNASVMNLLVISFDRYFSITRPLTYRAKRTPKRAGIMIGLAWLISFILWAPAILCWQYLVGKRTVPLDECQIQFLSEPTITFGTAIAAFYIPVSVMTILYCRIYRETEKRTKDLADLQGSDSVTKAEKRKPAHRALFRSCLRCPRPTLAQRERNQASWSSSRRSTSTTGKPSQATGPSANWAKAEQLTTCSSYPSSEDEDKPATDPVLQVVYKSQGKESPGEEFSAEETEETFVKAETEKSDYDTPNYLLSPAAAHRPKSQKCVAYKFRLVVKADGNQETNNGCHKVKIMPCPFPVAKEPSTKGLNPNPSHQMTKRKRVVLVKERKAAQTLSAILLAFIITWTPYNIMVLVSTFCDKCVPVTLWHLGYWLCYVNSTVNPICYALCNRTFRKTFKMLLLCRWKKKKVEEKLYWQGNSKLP
ASSAY_COMMENT: Calcium mobilization concentration-response (IC50 vs EC80 acetylcholine), CHO hM5
Format: cell-based
RECORDED_CONDITIONS: CELL LINE hM5; vs EC80 acetylcholine; read-out: IC50
pIC50: −log10 of the molar value.
READOUT: pIC50

[[record]]
chemical_smiles = "Cc1cc2ncnn2cc1C1=C(C#N)CN(S(=O)(=O)c2cnn(C)c2C)CC1"
target_or_system = "hM5 (Homo sapiens, UniProt P08912)"
readout = "pIC50"
reported_result = 5.79

[[record]]
chemical_smiles = "Cc1cc2ncccc2cc1C1CCN(S(=O)(=O)c2cnn(C)c2Cl)CC1"
target_or_system = "hM5 (Homo sapiens, UniProt P08912)"
readout = "pIC50"
reported_result = 7.47


P = Cn1ncc(S(=O)(=O)N2CCC(c3cc(-c4ccco4)n[nH]3)CC2)c1Cl
Q = Cc1cnc2ccccc2c1C1=CCN(S(=O)(=O)c2cnn3c2OCCC3)CC1
Request: Could you tell me which of P and Q has the lower pIC50 reading? Give the label under which the chosen entry appears.
Result: P

a = Cc1nnc(S(=O)(=O)N2CCC(c3cn4ncnc4cc3Cl)CC2)o1
b = [2H]C1([2H])CC(c2cn3ncnc3c(F)c2C)CC([2H])([2H])N1S(=O)(=O)c1cnc2sccn12
Request: // task: argmin of pIC50 over [ a , b ] Label of pick, please.
Result: a
(a: 6.82, b: 7.96)

I = Cc1cc2ncnn2cc1C1CCN(S(=O)(=O)c2cnn(C)c2N2CCOCC2)CC1
II = Cn1ncc(S(=O)(=O)N2CCC(c3ccc4ncnn4c3)CC2)c1C#N
Request: Hi team, can someone confirm which has the larger pIC50: I or II ? Thanks. Please identify the chosen entry by its label.
Result: II
(II: 6.11, I: 5.70)

----------
TARGET_OR_SYSTEM: hM5 (Homo sapiens, UniProt P08912)
Construct: expressed in transfected cells
ASSAY_COMMENT: Calcium mobilization concentration-response (IC50 vs EC80 acetylcholine), CHO hM5
Assay type: cell-based
RECORDED_CONDITIONS: CELL LINE hM5; calcium mobilization, EC80 acetylcholine addition; read-out: IC50
READOUT: IC50 (nM)

The following molecules have reported results that may help.
[[record]]
molecule = "C=Cc1cc2ncnn2cc1C1=CCN(S(=O)(=O)c2cnn(C)c2C)CC1 [Compound 147]"
reported_result = 51

[[record]]
molecule = "Cc1nc(C)c(S(=O)(=O)N2CCC(c3nn4ccnc4cc3C)CC2)s1 [Compound 249]"
reported_result = 2600

[[record]]
molecule = "O=S(=O)(c1cnn2c1OCCC2)N1CCC(c2ccc3ncnn3c2)CC1 [Compound 387]"
reported_result = 113


a = Cc1c(C2CCN(S(=O)(=O)c3cnn4c3CCCC4)CC2)cn2ncnc2c1F [Compound 305]
b = [2H]C1([2H])Oc2cc(C)c(C3CCN(S(=O)(=O)c4cnn5c4OCCC5)CC3)cc2OC1([2H])[2H] [Compound 393]
c = Cc1cc2ncnn2cc1C1=CCN(S(=O)(=O)c2cc3c(cc2C)OCC3C)CC1 (stereo not shown) [Compound 84]
Request: I would appreciate it if you could sort these 3 molecules by IC50, starting from the smallest number. Sort and list the labels as requested.
Result: a, b, c

I = Cc1cc2ncnn2nc1C1CCN(S(=O)(=O)c2cnn3c2CCC3)CC1 [Compound 187]
II = Cc1nn(C)cc1S(=O)(=O)N1CCC(c2cn3ncnc3cc2C(F)(F)F)CC1 [Compound 113]
Request: Of the two listed items, which has the higher IC50? First: I Second: II Mark your selection by writing its label.
Result: II

I = Cc1ncc(S(=O)(=O)N2CC=C(c3cn4nc(C(F)F)nc4cc3C)CC2)s1 [Compound 317]
II = O=S(=O)(c1cnc2ccccn12)N1CCC(c2cn3ncnc3cc2F)CC1 [Compound 327]
III = O=S(=O)(c1ccc2ncsc2c1)N1CCC(c2cc3cc[nH]c3nn2)CC1 [Compound 22]
Request: I would appreciate it if you could sort these 3 molecules by IC50, starting from the smallest number. Reply with the item labels sorted in the order that was asked for.
Result: II, III, I
(II: 774 nM, III: 2600 nM, I: 6900 nM)

a = Cc1cc2nccn2nc1C1CCN(S(=O)(=O)c2cnn3c2CCCC3)CC1 [Compound 247]
b = Cc1cc2nccnc2cc1C1=CCN(S(=O)(=O)c2cnn(C)c2Cl)CC1 [Compound 355]
c = Cc1cc2ncnn2cc1C1CCN(S(=O)(=O)c2cccc3nonc23)CC1 [Compound 168]
d = [2H]C([2H])([2H])n1nc(Cl)c(S(=O)(=O)N2CCC(c3cn4ncnc4cc3F)CC2)c1C [Compound 257]
Request: Ranking field: IC50; order: falling. Lab note: final answer is the ordered label list.
Result: c, b, d, a

A = CCc1cc2ncnn2cc1C1CCN(S(=O)(=O)c2cnn(C)c2C(F)F)CC1 [Compound 301]
B = CCc1cc2ncnn2cc1C1CCN(S(=O)(=O)c2cnn3c2CCC3)CC1 [Compound 299]
C = Cc1cc2c(cc1C1CCN(S(=O)(=O)c3cnn4c3CCC4)CC1)OCO2 [Compound 374]
D = Cc1c(C2CCN(S(=O)(=O)c3cnn(C)c3C(F)F)CC2)cn2ncnc2c1F [Compound 307]
E = COc1cc2ncnn2cc1C1CCN(S(=O)(=O)c2cc3c(cc2C)OCC3C)CC1 (stereo not shown) [Compound 88]
Request: Sequence the entries by IC50, beginning with the highest number. Write the labels, ordered according to the request.
Result: E, A, B, D, C
